# Method: Pharmacokinetic determination in mice (plasma)
# Format: in vivo, C57BL/6J mice
# Experimental Context: C57 mice, PO administration, 5 mpk
Give Time to peak tmax for every item shown.
Answers are plain numbers, in min.

>  <Molecule>
O=C1c2ncc(F)cc2CN1c1ccc(N[C@H]2CC[C@H](Nc3ncc(C(F)(F)F)nn3)C2)nc1 [Example 153]

>  <Endpoint Result>
120

$$$$
>  <Molecule>
Cc1ccn2nc(N[C@H]3CC[C@H](Nc4ccc(-n5ccccc5=O)cn4)C3)nc2c1 [Example 87]

>  <Endpoint Result>
15

$$$$

Would you mind telling me what Time to peak tmax value was observed for O=C1c2cccnc2CN1c1ccc(NC2CCC(Nc3ncc(OC(F)(F)F)cn3)C2)nc1 (stereo not drawn) [Example 122] ?
30

---

Give IC50 for every item shown.
# Target System: PCSK9 secreted by HepG2 cells (Homo sapiens (Human), UniProt Q8NBP7)
# Sequence (Q8NBP7 153-692): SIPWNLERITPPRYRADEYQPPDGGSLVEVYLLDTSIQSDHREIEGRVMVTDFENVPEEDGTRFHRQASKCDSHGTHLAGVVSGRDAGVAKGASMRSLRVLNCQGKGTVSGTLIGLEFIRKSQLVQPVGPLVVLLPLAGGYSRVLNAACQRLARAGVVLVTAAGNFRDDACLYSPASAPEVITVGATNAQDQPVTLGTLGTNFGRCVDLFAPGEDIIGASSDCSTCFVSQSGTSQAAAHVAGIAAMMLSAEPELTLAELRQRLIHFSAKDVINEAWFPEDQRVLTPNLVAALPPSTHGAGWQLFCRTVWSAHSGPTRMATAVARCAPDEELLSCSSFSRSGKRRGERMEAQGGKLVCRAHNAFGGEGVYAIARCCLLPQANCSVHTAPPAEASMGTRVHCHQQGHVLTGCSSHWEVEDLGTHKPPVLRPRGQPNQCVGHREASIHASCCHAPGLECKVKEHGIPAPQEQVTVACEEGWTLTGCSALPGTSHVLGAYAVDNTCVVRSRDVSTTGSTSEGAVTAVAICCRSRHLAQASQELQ
# Sequence (Q8NBP7 31-152 partner): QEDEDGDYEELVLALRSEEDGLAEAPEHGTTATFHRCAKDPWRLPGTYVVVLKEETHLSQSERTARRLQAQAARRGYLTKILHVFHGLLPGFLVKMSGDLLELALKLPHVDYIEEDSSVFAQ
# Method: Effect on the concentration of PCSK9 secreted by HepG2 cells (ELISA)
# Experimental Context: 48 hours incubation, read-out: Inhibitory activity on PCSK9, IC50
Answers are plain numbers, in µM.

Solved cases (3 shown):
>  <Chem Smiles>
O=S1(=O)c2ncccc2CN1c1ccc(N[C@H]2CC[C@H](Nc3ncc(C(F)(F)F)nn3)C2)nc1

>  <Endpoint Unit>
µM

>  <IC50>
13.2

$$$$
>  <Chem Smiles>
FC(F)Oc1cnc(N[C@H]2CC[C@H](Nc3ccc(-c4cccc5ncnn45)cn3)C2)nc1

>  <Endpoint Unit>
µM

>  <IC50>
10.4

$$$$
>  <Chem Smiles>
O=c1c(-c2ccc(N[C@H]3CC[C@H](Nc4ncc(OC(F)F)cn4)C3)nc2)ccc2ccccn12

>  <Endpoint Unit>
µM

>  <IC50>
18

$$$$

Please give IC50, item by item, for the list that follows.
1. Cc1cc2c(cn1)CN(c1ccc(N[C@H]3CC[C@H](Nc4nc5cc(C(F)(F)F)ccn5n4)C3)nc1)C2=O
2. CC1(C)CCCN(c2ccc(N[C@H]3CC[C@H](Nc4ncc(OC(F)F)cn4)C3)nc2)S1(=O)=O

1. 2.1
2. 13.5

Please give IC50, item by item, for the list that follows.
1. CC1(C)C(=O)N(c2ccc(N[C@H]3CC[C@H](Nc4ncc(OC(F)F)cn4)C3)nc2)c2cccnc21
2. O=C1c2cc(C(F)(F)F)ncc2CN1c1ccc(N[C@H]2CC[C@H](Nc3ncc(C(F)(F)F)nn3)C2)nc1

14.4
1.5

---

# Target System: PCSK9 secreted by HepG2 cells (Homo sapiens (Human))
# Method: Effect on the concentration of PCSK9 secreted by HepG2 cells (ELISA)
# Experimental Context: 48 hours incubation, read-out: Inhibitory activity on PCSK9, IC50
Threshold check on IC50: strictly below 3 µM is MET; on or above 3 µM is NOT MET.

Example entries begin here.
>  <Molecule>
CC(C)(O)c1cccn(-c2ccc(N[C@H]3CC[C@H](Nc4ncc(OC(F)F)cn4)C3)nc2)c1=O [Example 64]

>  <Discrete Label>
NOT MET

$$$$
>  <Molecule>
O=C1c2cccnc2CN1c1ccc(N[C@H]2CC[C@H](Nc3ncc(C4CC4)cn3)C2)nc1 [Example 128]

>  <Discrete Label>
NOT MET

$$$$
>  <Molecule>
O=C1c2ncccc2CN1c1ccc(N[C@H]2CC[C@H](Nc3nc4cc(F)ccn4n3)C2)nc1 [Example 129]

>  <Discrete Label>
NOT MET

$$$$
>  <Molecule>
O=C1c2cccnc2CN1c1ccc(NC2CCC(Nc3ncc(OC(F)(F)F)cn3)C2)nc1 (stereo not drawn) [Example 122]

>  <Discrete Label>
MET

$$$$
>  <Molecule>
O=S1(=O)CCCN1c1ccc(N[C@H]2CC[C@H](Nc3ncc(OC(F)F)cn3)C2)nc1 [Example 91]

>  <Discrete Label>
NOT MET

$$$$
>  <Molecule>
CC1(C)CCN(c2ccc(N[C@H]3CC[C@H](Nc4ncc(OC(F)F)cn4)C3)nc2)S1(=O)=O [Example 119]

>  <Discrete Label>
NOT MET

$$$$
>  <Molecule>
O=C1c2cccnc2CN1c1ccc(N[C@H]2CC[C@H](Nc3ncc(OC(F)(F)Br)cn3)C2)nc1 [Example 123]

>  <Discrete Label>
NOT MET

$$$$
>  <Molecule>
O=C1c2ncccc2CN1c1ccc(N[C@H]2CC[C@H](Nc3ncc(C(F)(F)F)nn3)C2)nc1 [Example 144]

>  <Discrete Label>
NOT MET

$$$$
>  <Molecule>
O=C1c2ncncc2CN1c1ccc(N[C@H]2CC[C@H](Nc3ncc(OC(F)F)cn3)C2)nc1 [Example 132]

>  <Discrete Label>
NOT MET

$$$$
>  <Molecule>
N#Cc1cnn2c(-c3ccc(N[C@H]4CC[C@H](Nc5ncc(OC(F)F)cn5)C4)nc3)cccc12 [Example 99]

>  <Discrete Label>
MET

$$$$

Quick check: IC50 of O=C1c2ncccc2CN1c1ccc(N[C@H]2CC[C@H](Nc3ncc(C4CC4)nn3)C2)nc1 [Example 126] under 3 µM?
MET

Quick check: IC50 of CC(C)(C)c1ccc2c(n1)C(=O)N(c1ccc(N[C@H]3CC[C@H](Nc4nc5cc(F)ccn5n4)C3)nc1)C2 [Example 164] under 3 µM?
MET

Hey, just so you know, these numbers are from patent US20250326722A1.
